Assay: Half life of the compound
property measured: half-life (min)

Would you please look over these solved cases?
CCO/C(O)=C1\C(COCCN2CC(=O)NC2=O)=NC(C)=C(C(=O)OC)C1c1cccc(Cl)c1Cl (stereo unspecified) : 30
COC(=O)C1=C(C)NC(C)=C(C(=O)OC)C1c1ccccc1[N+](=O)[O-] : 36

P: CCO/C(O)=C1\C(COCCn2ccnn2)=NC(C)=C(C(=O)OC)C1c1cccc(Cl)c1Cl (stereo unspecified)
Q: CCO/C(O)=C1\C(COCCn2cc(C(N)=O)nn2)=NC(C)=C(C(=O)OC)C1c1cccc(Cl)c1Cl (stereo unspecified)
R: CCO/C(O)=C1\C(COCCN2CC(=O)N(C)C2=O)=NC(C)=C(C(=O)OC)C1c1cccc(Cl)c1Cl (stereo unspecified)
Query: List by increasing half-life. Provide your answer as the labels ordered per the instruction.
Reply: R, Q, P
(R: 10 min, Q: 20 min, P: 30 min)

###

Species: Rattus norvegicus
Test: Concentration required to block Ca+2-induced contraction of K+ depolarized rat aorta
Type: functional
pIC50: −log10 of the molar value.
property measured: pIC50

CCO/C(O)=C1\C(COCCN2CC(=O)N=C2N)=NC(C)=C(C(=O)OC)C1c1ccccc1Cl (stereo not drawn) : 7.70

I: CCO/C(O)=C1\C(COCCN2C(=O)CNC2=O)=NC(C)=C(C(=O)OC)C1c1ccccc1Cl (stereo not drawn)
II: CCO/C(O)=C1\C(COCCN2CC(=O)NC2=O)=NC(C)=C(C(=O)OC)C1c1ccccc1Cl (stereo not drawn)
Query: Param metric = pIC50; output whichever of I , II has the minimum value. // return label of chosen record
Reply: I
(I: 7.50, II: 7.70)
